Assay: gradient 5% acetonitrile 3 min, to 50% in 2 min, to 85% in 15 min, held 3 min, 100 µL/min
Details: column: Zorbax Extend-C18 2.1 x 50 mm; eluents: water / acetonitrile, 0.1% formic acid
yes (1) if RP-LC retention time is below 700 s. no (0) if not; exact matches included in no (0).

Please review the following examples before continuing.
compound: CCn1ncn2cc(S(=O)(=O)Nc3ccc(C)c(C)c3)cc2c1=O
class name: no (0)
--
compound: CCCCCn1c(=O)c2ccccc2n(Cc2nc(-c3ccc(Cl)c(F)c3)no2)c1=O
class name: yes (1)

Please let me know if CC(C)n1c(=O)c(NCc2cccc(C(F)(F)F)c2)nc2ccncc21 shows RP-LC retention time below 700 s.
no (0)

Please let me know if CCCNC(=O)C1CCCN(c2ccc(SCC(=O)Nc3cc(OC)cc(OC)c3)nn2)C1 (stereo not given) shows RP-LC retention time below 700 s.
yes (1)

* * *

Test: gradient 5% acetonitrile 3 min, to 50% in 2 min, to 85% in 15 min, held 3 min, 100 µL/min
Settings: column: Zorbax Extend-C18 2.1 x 50 mm; eluents: water / acetonitrile, 0.1% formic acid
property measured: RP-LC retention time (s)
Return type: number; implicit unit s.

Before answering, review these 2 worked examples.
compound: COc1cccc(OC)c1OCCNCC1CSc2ccccc2O1 (configuration not stated)
property measured: RP-LC retention time
assay result: 815
//
compound: COC(=O)C1=CN(C2CC2)c2cc(N3CCCCCC3)c(F)cc2S1(=O)=O
property measured: RP-LC retention time
assay result: 980

Given item CN(C)S(=O)(=O)N1CC(c2noc(-c3cccnc3)n2)C2(CCOCC2)C1 (configuration not stated) , the value recorded as its RP-LC retention time is 713

Given item Cc1nc2cc(-c3noc(/C=C/c4ccccc4)n3)ccc2o1 , the value recorded as its RP-LC retention time is 1140

* * *

A collection of compounds and their measured RP-LC retention time
Experiment: gradient 5% acetonitrile 3 min, to 50% in 2 min, to 85% in 15 min, held 3 min, 100 µL/min
Conditions: column: Zorbax Extend-C18 2.1 x 50 mm; eluents: water / acetonitrile, 0.1% formic acid
Return type: number; implicit unit s.

compound: COc1ccccc1C(=O)N1C[C@@H]2C[C@H]1C[C@@H]2NS(C)(=O)=O
units: s
RP-LC retention time: 632
//
compound: O=C(CN1C(=O)COc2ccc(C(=O)N3CCCCC3)cc21)N1CCc2ccccc2C1
units: s
RP-LC retention time: 788
//
compound: COCC(=O)NC(Cc1ccccc1)c1nc2ccccc2n1Cc1ccccc1F (stereo unspecified)
units: s
RP-LC retention time: 769
//
compound: O=C(Cn1nc(C2CC2)cc1C(=O)N1CCCC1)Nc1ccccc1
units: s
RP-LC retention time: 740
//
compound: Cc1ccc(S(=O)(=O)C2CS(=O)(=O)CC2S(=O)(=O)c2ccc(C)cc2)cc1 (stereo unspecified)
units: s
RP-LC retention time: 856

Given item C/C=C1/CN2CC[C@]34C(=C(C=O)[C@H]1C[C@H]23)Nc1ccccc14 , the value recorded as its RP-LC retention time is 606

* * *

A collection of compounds and their measured RP-LC retention time
Experiment: gradient 5% acetonitrile 3 min, to 50% in 2 min, to 85% in 15 min, held 3 min, 100 µL/min
Conditions: column: Zorbax Extend-C18 2.1 x 50 mm; eluents: water / acetonitrile, 0.1% formic acid
Return type: number; implicit unit s.

Before answering, review these 8 worked examples.
compound: COc1ccc(C2CC(=O)N(c3ccc(F)c(F)c3)C(=O)C2)cc1OC
units: s
assay result: 852
//
compound: CC(C)n1c(=O)oc2cc(-c3noc(-c4ccccc4F)n3)ccc21
units: s
assay result: 1160
//
compound: O=C(Cn1c(=O)c2cc(-c3cccs3)nn2c2ncccc21)Nc1ccccc1F
units: s
assay result: 839
//
compound: CC(C)n1c(CN2CCCC2)nc2cc(NC(=O)c3ccco3)ccc21
units: s
assay result: 610
//
compound: COc1cccc(CNC(=O)c2ccc3c(c2)nc2n3CCN(Cc3ccccn3)C2=O)c1
units: s
assay result: 626
//
compound: O=C(NCCCN1CCN(c2ccccc2F)CC1)C1CCCN(c2nc3cccnc3s2)C1 (stereo unspecified)
units: s
assay result: 652
//
compound: CCOC(=O)c1c(C)n(C)c2ccccc12
units: s
assay result: 887
//
compound: CCOC(=O)C1=C(CN(C)c2ccccc2)NC(=O)NC1c1ccc(C)cc1 (stereo unspecified)
units: s
assay result: 1020

Given item CC1CCN(C(=O)c2ccc3c(=O)n4c(nc3c2)CCCC4)CC1 , the value recorded as its RP-LC retention time is 707

Given item CCNC(=O)C1CCN(Cc2cc3ccccc3n2Cc2ccc(C)cc2)CC1 , the value recorded as its RP-LC retention time is 724

Given item CCc1ccc(S(=O)(=O)N(C)CC2CCOCC2)cc1 , the value recorded as its RP-LC retention time is 911
